Biological target: HIV Env of isolate BJOX015000.11.5 (clade AE) (HIV)
Experiment: cell-based or functional assay

binder: PGDM1400 (antibody, V domains shown) VH: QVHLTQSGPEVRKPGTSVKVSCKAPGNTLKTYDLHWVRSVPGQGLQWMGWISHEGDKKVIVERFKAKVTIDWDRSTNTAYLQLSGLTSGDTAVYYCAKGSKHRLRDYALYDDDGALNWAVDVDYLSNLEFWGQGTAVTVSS VL: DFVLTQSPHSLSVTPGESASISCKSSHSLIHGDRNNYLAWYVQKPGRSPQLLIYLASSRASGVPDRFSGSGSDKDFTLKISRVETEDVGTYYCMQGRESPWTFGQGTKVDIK
unit.of.measure: µg/mL
IC50 (µg/ml) with constrains: 1.05
--
binder: ePGDM9 (antibody, V domains shown) VH: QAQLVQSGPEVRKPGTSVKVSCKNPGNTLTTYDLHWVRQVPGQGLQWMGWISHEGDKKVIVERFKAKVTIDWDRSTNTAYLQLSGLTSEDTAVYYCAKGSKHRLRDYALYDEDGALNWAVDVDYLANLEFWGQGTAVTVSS VL: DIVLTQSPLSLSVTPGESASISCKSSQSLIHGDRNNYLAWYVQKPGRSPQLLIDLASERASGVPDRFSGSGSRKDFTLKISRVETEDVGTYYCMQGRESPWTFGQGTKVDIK
unit.of.measure: µg/mL
IC50 (µg/ml) with constrains: 0.958
--
binder: ePGDM13 (antibody, V domains shown) VH: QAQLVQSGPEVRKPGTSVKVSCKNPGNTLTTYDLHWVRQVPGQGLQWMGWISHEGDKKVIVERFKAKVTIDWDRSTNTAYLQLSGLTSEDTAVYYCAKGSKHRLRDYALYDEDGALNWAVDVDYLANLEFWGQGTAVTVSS VL: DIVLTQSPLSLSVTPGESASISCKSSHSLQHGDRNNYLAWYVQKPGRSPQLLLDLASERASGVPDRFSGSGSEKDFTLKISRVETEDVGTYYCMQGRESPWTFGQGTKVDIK
unit.of.measure: µg/mL
IC50 (µg/ml) with constrains: 1.72
--
binder: ePGDM5 (antibody, V domains shown) VH: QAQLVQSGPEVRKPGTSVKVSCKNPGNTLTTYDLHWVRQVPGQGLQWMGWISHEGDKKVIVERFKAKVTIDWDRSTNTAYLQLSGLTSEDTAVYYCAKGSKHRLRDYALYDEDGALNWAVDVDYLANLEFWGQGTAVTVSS VL: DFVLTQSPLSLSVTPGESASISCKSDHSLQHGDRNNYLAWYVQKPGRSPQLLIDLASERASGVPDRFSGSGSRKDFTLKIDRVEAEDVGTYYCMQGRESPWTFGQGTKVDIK
unit.of.measure: µg/mL
IC50 (µg/ml) with constrains: 1.1

Values compiled from patent US20230134571A1.
